In this section we review reported viability at 100 µM values for a set of compounds.
assay: in vitro; details: human, % of cell viability compared to control, 3. measurement, HepG2, 100 µM
Observed property: viability at 100 µM (%)

| Compound | Observed property | Units label | Observed result |
| --- | --- | --- | --- |
| COc1ccc2cc3[n+](cc2c1OCc1cccc(Cl)c1)CCc1cc2c(cc1-3)OCO2 [16h, 9-O-(3-chlorbenzyl)berberine chloride] | viability at 100 µM | % | 0.98 |
| COc1ccc2cc3[n+](cc2c1OCc1cccc(Br)c1)CCc1cc2c(cc1-3)OCO2 [16f, 9-O-(3-brombenzyl)berberine chloride] | viability at 100 µM | % | 1.1 |
| COc1ccc2cc3[n+](cc2c1OCc1ccccc1)CCc1cc2c(cc1-3)OCO2 [16a, 9-O-benzylberberine chloride] | viability at 100 µM | % | 15.3 |
| COc1ccc2cc3[n+](cc2c1OCc1ccc(Br)cc1)CCc1cc2c(cc1-3)OCO2 [16g, 9-O-(4-brombenzyl)berberine chloride] | viability at 100 µM | % | 14 |
| COc1ccc2cc3[n+](cc2c1OCc1ccccc1C)CCc1cc2c(cc1-3)OCO2 [16b, 9-O-(2-methylbenzyl)berberine chloride] | viability at 100 µM | % | 38.5 |
| COc1ccc2cc3[n+](cc2c1OCc1ccc(C)cc1)CCc1cc2c(cc1-3)OCO2 [16d, 9-O-(4-methylbenzyl)berberine chloride] | viability at 100 µM | % | 11.4 |
| COc1ccc2cc3[n+](cc2c1OCc1ccc(Cl)c(Cl)c1)CCc1cc2c(cc1-3)OCO2 [16k] | viability at 100 µM | % | 0.81 |
| COc1ccc2cc3[n+](cc2c1OCc1cccc(C)c1)CCc1cc2c(cc1-3)OCO2 [16c, 9-O-(3-methylbenzyl)berberine chloride] | viability at 100 µM | % | 42.5 |

---

test system: Mycobacterium kansasii DSM 44162 (ATCC 12478); assay: Antimycobacterial microdilution broth assay (resazurin), M. kansasii; format: cell-based; conditions: Mycobacterium kansasii, 96 h, read-out: MIC M. kansasii, microdilution broth, resazurin, 96 h

| Compound | Relation qualifier | MIC (µg/mL) |
| --- | --- | --- |
| COc1ccc2cc3[n+](cc2c1OCc1ccccc1)CCc1cc2c(cc1-3)OCO2 [16a, 9-O-benzylberberine chloride] | = | 6.25 |
| COc1cc2c(cc1O)[C@@H]1Cc3ccc(OC)c(OC)c3CN1CC2 | ≥ | 250 |
| COc1ccc2cc3[n+](cc2c1OCc1ccc(C)cc1)CCc1cc2c(cc1-3)OCO2 [16d, 9-O-(4-methylbenzyl)berberine chloride] | = | 3.91 |
| COc1cc2c3c(c1O)-c1c(ccc(OC)c1OC)C[C@@H]3N(C)CC2 | = | 250 |
| COc1ccc2cc3[n+](cc2c1OCc1cccc(Br)c1)CCc1cc2c(cc1-3)OCO2 [16f, 9-O-(3-brombenzyl)berberine chloride] | = | 3.12 |
| COc1ccc2c(c1O)-c1c(OC)c(OC)cc3c1[C@H](C2)N(C)CC3 | = | 125 |
| COc1ccc2cc3[n+](cc2c1OCc1ccccc1Br)CCc1cc2c(cc1-3)OCO2 [16e, 9-O-(2-brombenzyl)berberine chloride] | = | 3.12 |
| COc1ccc2cc3[n+](cc2c1OCc1ccc(Br)cc1)CCc1cc2c(cc1-3)OCO2 [16g, 9-O-(4-brombenzyl)berberine chloride] | = | 0.98 |
| COc1ccc2cc3[n+](cc2c1OCc1ccc(Cl)c(Cl)c1)CCc1cc2c(cc1-3)OCO2 [16k] | = | 6.25 |
| COc1cc2c(cc1OC)-c1c(OC)c(OC)cc3c1[C@H](C2)N(C)CC3 | = | 62.5 |
| O=C(O)c1cn(C2CC2)c2cc(N3CCNCC3)c(F)cc2c1=O [ciprofloxacin, reference compound] | = | 0.25 |
| COc1ccc2cc3[n+](cc2c1OCc1cccc(Cl)c1)CCc1cc2c(cc1-3)OCO2 [16h, 9-O-(3-chlorbenzyl)berberine chloride] | = | 3.12 |
| COc1ccc2c(c1OC)CN(C)c1c-2ccc2cc3c(cc12)OCO3 [compound 2, dihydrochelerythrine] | = | 250 |
| c1cc2c(c3c1C[C@H]1c4cc5c(cc4CCN1C3)OCO5)OCO2 | ≥ | 125 |
